Tested on: MDA-MB-231
assay_comment: Cytotoxicity against human ER-negative MDA-MB-231 cells assessed as cell viability after 72 hrs
Format: functional, cell-based
condition_description: MDA-MB-231, 72 h
The following compounds are shown together with reported IC50 values.
measured_metric: IC50

# compound, measured_metric, result
measured = [
    ("CC(C)[C@H](NC(=O)[C@H](C)N)C(=O)N1C(C(=O)NC(c2ccccc2)c2ccccc2)CSC1(C)C (stereo in doubt; 9)", "IC50", "> 50 µM"),
    ("CC(C)[C@H](NC(=O)[C@H](C)N)C(=O)N1CCCN(C2CCCCC2)CC1C(=O)NC(c1ccccc1)c1ccccc1 (some centres undefined)", "IC50", "> 50 µM"),
    ("CCN1CCN(C(=O)[C@@H](NC(=O)[C@H](C)N)C(C)C)C(C(=O)NC(c2ccccc2)c2ccccc2)C1 (some centres undefined)", "IC50", "> 50 µM"),
    ("CC(C)[C@H](NC(=O)[C@H](C)N)C(=O)N1CCN(Cc2ccccc2)CC1C(=O)NC(c1ccccc1)c1ccccc1 (some centres undefined)", "IC50", "31 µM"),
    ("CC(C)C(NC(=O)[C@H](C)N)c1nc(C(=O)NCc2ccccc2)c(-c2ccccc2)s1 (some centres undefined)", "IC50", "> 50 µM"),
    ("CN[C@@H](C)C(=O)NC1CCC[C@H]2SC[C@@H](C(=O)Nc3cc(C)nn3-c3ccccc3)N2C1=O (some centres undefined)", "IC50", "2 µM"),
    ("CC(C)[C@H](NC(=O)[C@H](C)N)C(O)c1nnnn1CCc1ccccc1 (some centres undefined)", "IC50", "> 50 µM"),
    ("CN[C@@H](C)C(=O)NC1CCC[C@H]2[C@@H](Cc3ccccc3)C[C@@H](C(=O)N[C@@H]3CCCc4ccccc43)N2C1=O (some centres undefined)", "IC50", "0.026 µM"),
    ("CC(C)C(NC(=O)[C@H](C)N)c1nc(C(=O)NCc2ccccc2)cs1 (some centres undefined)", "IC50", "> 50 µM"),
]

====

target_or_system: E3 ubiquitin-protein ligase XIAP (Homo sapiens)
assay_comment: Inhibition of XIAP-Bir3 domain at 10 uM by TR-FRET assay
measured_metric: inhibition

# compound, measured_metric, result
data = [
    ("CC(C)C(NC(=O)[C@H](C)N)c1nc(C(=O)NCc2ccccc2)cs1 (some centres undefined)", "inhibition", "19.9%"),
    ("CC(C)[C@H](NC(=O)[C@H](C)N)C(=O)N1CCCN(C2CCCCC2)CC1C(=O)NC(c1ccccc1)c1ccccc1 (some centres undefined)", "inhibition", "15.6%"),
    ("CC(C)[C@H](NC(=O)[C@H](C)N)C(=O)N1C(C(=O)NC(c2ccccc2)c2ccccc2)CSC1(C)C (stereo in doubt)", "inhibition", "16.7%"),
    ("CCN1CCN(C(=O)[C@@H](NC(=O)[C@H](C)N)C(C)C)C(C(=O)NC(c2ccccc2)c2ccccc2)C1 (some centres undefined)", "inhibition", "77.2%"),
]

====

target_or_system: E3 ubiquitin-protein ligase XIAP (Homo sapiens, UniProt P98170)
Sequence (P98170 whole entry, the tested form may be a part): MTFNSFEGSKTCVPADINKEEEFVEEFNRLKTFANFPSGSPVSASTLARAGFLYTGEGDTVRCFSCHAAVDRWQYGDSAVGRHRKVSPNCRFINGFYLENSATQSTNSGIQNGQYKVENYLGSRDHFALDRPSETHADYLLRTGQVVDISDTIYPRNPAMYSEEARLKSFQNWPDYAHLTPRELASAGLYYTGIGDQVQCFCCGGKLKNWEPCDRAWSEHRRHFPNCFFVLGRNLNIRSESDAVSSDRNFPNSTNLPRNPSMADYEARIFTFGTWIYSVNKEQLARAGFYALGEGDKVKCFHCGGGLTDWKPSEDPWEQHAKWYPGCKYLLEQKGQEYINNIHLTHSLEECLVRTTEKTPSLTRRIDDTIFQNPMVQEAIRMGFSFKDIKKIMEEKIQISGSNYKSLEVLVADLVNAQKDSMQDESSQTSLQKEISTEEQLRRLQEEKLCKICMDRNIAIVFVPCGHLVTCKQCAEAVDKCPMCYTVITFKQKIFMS
assay_comment: Inhibition of XIAP by FP assay

# compound, Kd
records = [
    ("CN[C@@H](C)C(=O)NC1CCC[C@H]2[C@@H](Cc3ccccc3)C[C@@H](C(=O)N[C@@H]3CCCc4ccccc43)N2C1=O (stereo partly specified)", "31 nM"),
]
